The values you see were collected from ChEMBL document CHEMBL2203170.

Target: DNA-dependent protein kinase catalytic subunit (Homo sapiens, UniProt P78527)
Sequence (P78527 whole entry): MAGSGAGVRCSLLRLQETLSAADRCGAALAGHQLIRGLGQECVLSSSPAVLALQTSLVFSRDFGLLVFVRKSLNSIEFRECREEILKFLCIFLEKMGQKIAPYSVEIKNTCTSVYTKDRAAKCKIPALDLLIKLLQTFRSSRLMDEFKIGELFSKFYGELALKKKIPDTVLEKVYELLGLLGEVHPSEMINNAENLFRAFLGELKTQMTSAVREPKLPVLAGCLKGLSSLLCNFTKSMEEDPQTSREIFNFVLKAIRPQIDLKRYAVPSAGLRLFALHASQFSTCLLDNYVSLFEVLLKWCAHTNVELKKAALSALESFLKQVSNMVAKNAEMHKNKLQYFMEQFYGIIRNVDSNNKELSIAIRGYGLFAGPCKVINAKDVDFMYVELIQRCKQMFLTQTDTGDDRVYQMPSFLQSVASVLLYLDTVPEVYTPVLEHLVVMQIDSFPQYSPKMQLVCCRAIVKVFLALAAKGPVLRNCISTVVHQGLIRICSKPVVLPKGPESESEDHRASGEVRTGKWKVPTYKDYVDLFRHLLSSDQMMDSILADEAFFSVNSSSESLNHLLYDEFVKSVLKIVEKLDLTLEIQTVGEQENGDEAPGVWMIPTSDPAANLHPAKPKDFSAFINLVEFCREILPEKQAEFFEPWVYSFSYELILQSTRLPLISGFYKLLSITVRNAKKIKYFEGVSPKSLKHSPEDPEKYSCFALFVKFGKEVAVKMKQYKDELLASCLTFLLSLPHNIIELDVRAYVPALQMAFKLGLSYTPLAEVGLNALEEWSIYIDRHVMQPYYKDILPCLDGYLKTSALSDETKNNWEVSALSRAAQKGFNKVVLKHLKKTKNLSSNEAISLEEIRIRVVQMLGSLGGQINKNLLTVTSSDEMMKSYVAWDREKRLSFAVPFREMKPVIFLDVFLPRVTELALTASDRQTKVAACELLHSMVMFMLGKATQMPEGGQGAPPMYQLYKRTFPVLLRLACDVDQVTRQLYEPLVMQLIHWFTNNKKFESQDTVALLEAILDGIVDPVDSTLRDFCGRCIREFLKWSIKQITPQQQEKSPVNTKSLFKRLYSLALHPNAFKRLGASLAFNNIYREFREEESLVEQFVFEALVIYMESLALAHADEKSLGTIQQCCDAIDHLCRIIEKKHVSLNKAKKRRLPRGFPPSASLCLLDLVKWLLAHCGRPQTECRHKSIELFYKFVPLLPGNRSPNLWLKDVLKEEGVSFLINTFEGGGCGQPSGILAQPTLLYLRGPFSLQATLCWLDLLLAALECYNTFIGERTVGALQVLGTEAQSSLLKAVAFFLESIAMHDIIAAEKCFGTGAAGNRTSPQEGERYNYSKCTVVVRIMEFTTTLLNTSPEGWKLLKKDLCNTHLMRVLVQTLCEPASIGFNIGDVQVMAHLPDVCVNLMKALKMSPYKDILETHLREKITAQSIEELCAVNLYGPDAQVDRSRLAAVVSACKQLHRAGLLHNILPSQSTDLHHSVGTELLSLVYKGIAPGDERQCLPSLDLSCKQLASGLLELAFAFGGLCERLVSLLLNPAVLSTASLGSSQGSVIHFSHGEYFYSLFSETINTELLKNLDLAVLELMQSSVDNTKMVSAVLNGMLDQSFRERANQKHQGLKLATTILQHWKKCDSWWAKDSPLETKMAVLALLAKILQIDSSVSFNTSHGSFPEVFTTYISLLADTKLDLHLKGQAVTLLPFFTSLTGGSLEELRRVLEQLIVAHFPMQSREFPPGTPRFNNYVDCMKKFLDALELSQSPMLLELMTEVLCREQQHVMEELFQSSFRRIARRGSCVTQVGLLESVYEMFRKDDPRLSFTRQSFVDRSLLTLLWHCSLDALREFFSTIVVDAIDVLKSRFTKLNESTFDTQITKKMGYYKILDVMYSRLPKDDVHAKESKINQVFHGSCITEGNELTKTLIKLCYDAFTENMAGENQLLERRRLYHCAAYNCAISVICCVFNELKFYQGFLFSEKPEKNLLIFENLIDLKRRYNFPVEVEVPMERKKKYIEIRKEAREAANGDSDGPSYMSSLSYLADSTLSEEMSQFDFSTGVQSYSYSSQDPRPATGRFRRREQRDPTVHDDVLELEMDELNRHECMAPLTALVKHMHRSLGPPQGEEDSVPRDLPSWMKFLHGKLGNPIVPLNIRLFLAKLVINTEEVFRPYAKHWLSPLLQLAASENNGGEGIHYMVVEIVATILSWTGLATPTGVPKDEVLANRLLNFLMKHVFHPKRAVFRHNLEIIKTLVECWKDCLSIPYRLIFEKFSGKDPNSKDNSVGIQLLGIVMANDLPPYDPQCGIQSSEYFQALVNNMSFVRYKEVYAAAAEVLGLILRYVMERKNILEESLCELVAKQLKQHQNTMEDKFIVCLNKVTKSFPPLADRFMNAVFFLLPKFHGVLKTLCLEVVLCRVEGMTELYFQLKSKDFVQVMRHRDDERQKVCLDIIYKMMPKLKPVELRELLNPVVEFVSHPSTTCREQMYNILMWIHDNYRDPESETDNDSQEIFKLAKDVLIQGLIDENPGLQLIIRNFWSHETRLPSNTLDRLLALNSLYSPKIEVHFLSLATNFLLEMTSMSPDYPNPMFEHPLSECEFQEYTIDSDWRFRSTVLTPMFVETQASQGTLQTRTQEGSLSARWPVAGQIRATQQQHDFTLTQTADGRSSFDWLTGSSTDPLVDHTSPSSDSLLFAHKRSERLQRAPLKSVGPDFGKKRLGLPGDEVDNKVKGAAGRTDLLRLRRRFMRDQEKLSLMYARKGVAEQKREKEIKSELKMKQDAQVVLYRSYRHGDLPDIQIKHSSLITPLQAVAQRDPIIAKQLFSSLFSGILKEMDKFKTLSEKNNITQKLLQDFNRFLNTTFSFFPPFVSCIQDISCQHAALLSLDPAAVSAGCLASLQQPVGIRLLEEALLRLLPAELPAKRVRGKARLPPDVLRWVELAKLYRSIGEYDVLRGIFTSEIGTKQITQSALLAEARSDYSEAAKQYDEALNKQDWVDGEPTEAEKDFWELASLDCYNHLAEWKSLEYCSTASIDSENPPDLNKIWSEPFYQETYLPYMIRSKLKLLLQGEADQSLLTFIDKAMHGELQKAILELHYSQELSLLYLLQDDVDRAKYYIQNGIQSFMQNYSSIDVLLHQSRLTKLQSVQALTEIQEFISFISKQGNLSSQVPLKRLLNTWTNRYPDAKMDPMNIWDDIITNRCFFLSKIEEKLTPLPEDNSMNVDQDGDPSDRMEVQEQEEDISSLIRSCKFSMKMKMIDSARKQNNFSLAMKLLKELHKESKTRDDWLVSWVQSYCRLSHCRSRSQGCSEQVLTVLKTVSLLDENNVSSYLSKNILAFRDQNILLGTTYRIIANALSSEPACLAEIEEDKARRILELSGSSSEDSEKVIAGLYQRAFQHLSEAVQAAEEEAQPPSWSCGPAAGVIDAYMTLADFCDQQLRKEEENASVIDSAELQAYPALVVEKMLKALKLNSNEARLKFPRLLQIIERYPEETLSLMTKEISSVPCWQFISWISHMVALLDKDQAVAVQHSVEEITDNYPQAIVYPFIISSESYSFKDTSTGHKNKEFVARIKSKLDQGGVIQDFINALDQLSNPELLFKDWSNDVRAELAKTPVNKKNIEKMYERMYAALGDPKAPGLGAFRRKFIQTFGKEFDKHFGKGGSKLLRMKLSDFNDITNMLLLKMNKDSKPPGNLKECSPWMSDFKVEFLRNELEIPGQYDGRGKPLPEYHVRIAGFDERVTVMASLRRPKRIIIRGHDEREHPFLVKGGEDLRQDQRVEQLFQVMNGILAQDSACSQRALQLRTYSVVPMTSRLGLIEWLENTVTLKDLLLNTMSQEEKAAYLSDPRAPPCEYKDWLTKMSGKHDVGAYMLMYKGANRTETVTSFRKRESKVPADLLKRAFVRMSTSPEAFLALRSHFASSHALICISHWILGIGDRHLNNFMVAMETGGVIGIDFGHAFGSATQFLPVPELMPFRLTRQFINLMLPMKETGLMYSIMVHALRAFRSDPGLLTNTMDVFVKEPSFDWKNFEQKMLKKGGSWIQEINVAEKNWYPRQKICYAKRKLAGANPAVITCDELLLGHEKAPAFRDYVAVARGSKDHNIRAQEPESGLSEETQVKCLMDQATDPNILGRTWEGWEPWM
Test: Inhibition of DNA-PK using EPPLSQEAFADLWKK as substrate after 5 mins by ADP-Glo kinase assay

SMILES REPRESENTATION	IC50 / nM
CN1CCN(CCOc2cccc3c(=O)nc(N4CCOCC4)oc23)CC1	1700
O=c1nc(N2CCOCC2)oc2c(OCc3cccnc3)cccc12	360
Cc1c(OCc2cccnc2)ccc2c(=O)nc(N3CCOCC3)oc12	280
Cc1c(OCc2cccnc2)ccc2c(=O)n(Cc3cccnc3)c(=O)oc12	10000
O=c1nc(N2CCOCC2)oc2c(OCc3ccncc3)cccc12	1600
Cc1c(OCc2cccnc2)ccc2c(=O)nc(N(Cc3cccnc3)c3cccnc3)oc12	2500
O=c1nc(N2CCOCC2)oc2c(OCc3ccccn3)cccc12	620
O=c1nc(N(Cc2ccccn2)c2cccnc2)oc2cc(OCc3ccccn3)ccc12	5700
O=c1nc(N2CCOCC2)oc2cc(OCc3ccncc3)ccc12	4200
O=c1nc(N2CCOCC2)oc2cc(OCc3cccnc3)ccc12	2500
O=c1nc(N2CCOCC2)oc2cc(OCc3ccccn3)ccc12	2700
O=c1nc(N(Cc2cccnc2)c2cccnc2)oc2c(OCc3cccnc3)cccc12	13500
O=c1nc(N(Cc2cccnc2)c2cccnc2)oc2cc(OCc3cccnc3)ccc12	14800
Cc1c(OCc2ccncc2)ccc2c(=O)nc(N3CCOCC3)oc12	1200

###

Biological target: Phosphatidylinositol 4,5-bisphosphate 3-kinase catalytic subunit alpha isoform (Homo sapiens)
Sequence (P42336 whole entry, canonical isoform): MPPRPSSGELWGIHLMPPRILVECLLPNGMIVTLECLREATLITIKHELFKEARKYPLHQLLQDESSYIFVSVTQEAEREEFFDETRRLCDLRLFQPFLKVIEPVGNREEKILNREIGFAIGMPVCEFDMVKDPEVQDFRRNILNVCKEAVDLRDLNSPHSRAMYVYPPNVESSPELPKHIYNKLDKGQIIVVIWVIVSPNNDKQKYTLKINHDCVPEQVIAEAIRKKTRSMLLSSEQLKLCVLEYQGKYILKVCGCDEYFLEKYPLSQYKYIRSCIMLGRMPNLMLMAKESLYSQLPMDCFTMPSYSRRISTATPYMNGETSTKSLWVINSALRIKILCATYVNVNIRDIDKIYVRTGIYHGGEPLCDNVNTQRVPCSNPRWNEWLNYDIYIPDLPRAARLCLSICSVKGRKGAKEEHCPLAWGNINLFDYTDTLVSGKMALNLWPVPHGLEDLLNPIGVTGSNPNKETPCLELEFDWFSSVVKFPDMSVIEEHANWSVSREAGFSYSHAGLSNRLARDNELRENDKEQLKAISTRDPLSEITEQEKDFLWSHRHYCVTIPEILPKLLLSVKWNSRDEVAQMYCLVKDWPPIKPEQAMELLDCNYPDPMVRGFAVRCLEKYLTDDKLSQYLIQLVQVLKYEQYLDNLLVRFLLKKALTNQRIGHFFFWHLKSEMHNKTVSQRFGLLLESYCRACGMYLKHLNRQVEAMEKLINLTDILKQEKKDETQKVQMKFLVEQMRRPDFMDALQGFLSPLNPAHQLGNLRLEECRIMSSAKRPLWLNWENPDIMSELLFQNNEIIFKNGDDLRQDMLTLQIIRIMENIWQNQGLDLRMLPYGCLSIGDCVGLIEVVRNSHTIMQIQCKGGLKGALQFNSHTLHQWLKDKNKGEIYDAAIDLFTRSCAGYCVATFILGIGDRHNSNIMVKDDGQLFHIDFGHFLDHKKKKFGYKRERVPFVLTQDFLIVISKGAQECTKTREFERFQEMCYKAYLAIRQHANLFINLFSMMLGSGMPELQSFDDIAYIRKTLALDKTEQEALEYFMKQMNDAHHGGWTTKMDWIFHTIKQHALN
Assay: Inhibition of PI3Kalpha by HTRF assay in presence of ATP
Below, each of the molecules is paired with its reported IC50 value.

SMILES REPRESENTATION	UNIT SYMBOL	RELATION OPERATOR	IC50
O=c1nc(N2CCOCC2)oc2c(-c3ccccc3)cccc12	µM	=	4.07
Cc1c(OCc2cccnc2)ccc2c(=O)nc(N3CCOCC3)oc12	µM	=	0.13
Cc1c(OCCN2CCN(C)CC2)ccc2c(=O)nc(N3CCOCC3)oc12	µM	≥	100

###

Molecular target: Phosphatidylinositol 4,5-bisphosphate 3-kinase catalytic subunit delta isoform (Homo sapiens, UniProt O00329)
Sequence (O00329 whole entry): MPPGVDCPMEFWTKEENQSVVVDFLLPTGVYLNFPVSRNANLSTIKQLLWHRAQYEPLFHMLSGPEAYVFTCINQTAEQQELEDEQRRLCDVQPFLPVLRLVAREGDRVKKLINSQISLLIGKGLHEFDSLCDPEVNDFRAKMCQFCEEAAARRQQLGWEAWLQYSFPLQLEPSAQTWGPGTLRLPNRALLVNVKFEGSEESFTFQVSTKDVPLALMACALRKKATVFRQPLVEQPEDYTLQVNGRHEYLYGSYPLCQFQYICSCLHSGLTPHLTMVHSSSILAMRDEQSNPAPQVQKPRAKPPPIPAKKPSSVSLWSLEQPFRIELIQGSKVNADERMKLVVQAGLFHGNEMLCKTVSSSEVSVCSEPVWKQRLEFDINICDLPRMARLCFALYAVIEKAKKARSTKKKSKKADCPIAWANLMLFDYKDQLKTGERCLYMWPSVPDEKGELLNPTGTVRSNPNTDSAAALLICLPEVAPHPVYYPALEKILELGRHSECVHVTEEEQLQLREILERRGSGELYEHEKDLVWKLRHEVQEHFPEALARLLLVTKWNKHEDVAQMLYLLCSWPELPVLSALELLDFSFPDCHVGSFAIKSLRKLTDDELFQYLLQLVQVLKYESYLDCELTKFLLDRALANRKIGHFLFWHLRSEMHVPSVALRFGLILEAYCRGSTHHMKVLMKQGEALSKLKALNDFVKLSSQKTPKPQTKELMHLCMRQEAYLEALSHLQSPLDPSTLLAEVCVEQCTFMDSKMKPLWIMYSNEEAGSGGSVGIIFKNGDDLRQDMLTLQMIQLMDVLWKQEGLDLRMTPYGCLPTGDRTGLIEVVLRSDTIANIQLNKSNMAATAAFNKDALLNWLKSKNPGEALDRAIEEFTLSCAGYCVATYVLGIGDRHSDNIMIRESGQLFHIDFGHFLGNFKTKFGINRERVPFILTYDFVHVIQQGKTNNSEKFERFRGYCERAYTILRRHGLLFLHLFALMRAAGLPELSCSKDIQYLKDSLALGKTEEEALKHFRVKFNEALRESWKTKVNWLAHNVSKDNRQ
Experiment: Inhibition of PI3Kdelta by HTRF assay in presence of ATP
MEASURED ATTRIBUTE: IC50 (nM)

SMILES REPRESENTATION	RELATION OPERATOR	TEST RESULT
Cc1c(OCc2cccnc2)ccc2c(=O)nc(N3CCOCC3)oc12	=	2020
O=c1nc(N2CCOCC2)oc2c(-c3ccccc3)cccc12	=	950
Cc1c(OCCN2CCN(C)CC2)ccc2c(=O)nc(N3CCOCC3)oc12	≥	100000
